Subject Of Test: S6K1
Protocol Summary: recombinant in vitro kinase assay of S6K ([…] peptide substrate)
Measurement Type: pIC50
Hey, just a heads up that pIC50 is the negative log base 10 of the concentration in molar.

input: Return reported pIC50; argument: Nc1n[nH]c2nc(-c3ccc(NS(=O)(=O)c4cccc(Cl)c4Cl)cc3)cnc12
output: 7.48

====

Subject Of Test: SGK3 (Homo sapiens, UniProt Q96BR1)
Sequence (Q96BR1 whole entry): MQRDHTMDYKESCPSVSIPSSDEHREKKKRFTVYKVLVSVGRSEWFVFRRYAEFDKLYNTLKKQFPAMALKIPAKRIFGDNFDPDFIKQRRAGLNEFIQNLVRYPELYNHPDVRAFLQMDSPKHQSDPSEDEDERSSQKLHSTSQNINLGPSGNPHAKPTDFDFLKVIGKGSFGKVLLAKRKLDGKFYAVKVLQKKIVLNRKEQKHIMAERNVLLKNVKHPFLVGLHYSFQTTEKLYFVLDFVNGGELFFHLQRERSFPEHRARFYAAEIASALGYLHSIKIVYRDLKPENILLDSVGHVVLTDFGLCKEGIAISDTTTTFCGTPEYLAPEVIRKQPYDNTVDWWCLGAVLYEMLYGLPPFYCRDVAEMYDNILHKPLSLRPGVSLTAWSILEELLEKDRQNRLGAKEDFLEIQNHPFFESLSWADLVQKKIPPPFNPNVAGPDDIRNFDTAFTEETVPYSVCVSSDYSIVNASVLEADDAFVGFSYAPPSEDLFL
Measurement Type: IC50 (nM)
# unit: nM | format: bare number

input: Hi! What's the reported IC50 for Nc1n[nH]c2nc(-c3ccc(NS(=O)(=O)c4cccc(Cl)c4Cl)cc3)cnc12 on SGK3 (Homo sapiens, UniProt Q96BR1)?
output: 590

====

Measurement Type: IC50

input: What value of IC50 on mTOR (Homo sapiens) does Nc1n[nH]c2nc(-c3ccc(NS(=O)(=O)c4cccc(Cl)c4Cl)cc3)cnc12 have?
output: > 5 µM
